- TESTED_TARGET: PDE4D3 (Homo sapiens)
- Construct: GST
- Format: biochemical
- ASSAY_CONTEXT: GST-tagged PDE4D3, 200 nM FAM-cAMP, 11-point dose-response; read-out: PD4d3 pEC50 (converted)
Measured EC50, listed per entry.

{"SMILES_CODE": "COc1ncc(Cc2cnc(O)nc2)cc1-c1cccc(Cl)c1", "EC50": "1000 to 10000 nM"}
{"SMILES_CODE": "COc1ncc(Cc2cnc(N)nc2)cc1-c1ccc(F)cc1", "EC50": "< 100 nM"}
{"SMILES_CODE": "COc1ncc(Cc2cnc(C(N)=O)nc2)cc1-c1ccc(F)c(Cl)c1", "EC50": "100 to 1000 nM"}
{"SMILES_CODE": "COc1ncc(Cc2cnc(CC#N)nc2)cc1-c1ccc(F)c(F)c1", "EC50": "< 100 nM"}
{"SMILES_CODE": "COc1cc(-c2cc(Cn3cnc(N)n3)cnc2OC)ccc1F", "EC50": "1000 to 10000 nM"}
{"SMILES_CODE": "CCOc1ncc(Cn2cnc(CO)n2)cc1-c1ccc(Cl)c(Cl)c1", "EC50": "100 to 1000 nM"}
{"SMILES_CODE": "NC(=O)Cc1ncc(Cc2cnc(OCC(F)F)c(-c3cccc(Cl)c3)c2)cn1", "EC50": "< 100 nM"}
{"SMILES_CODE": "CCOc1ncc(Cc2cnc(N)nc2)cc1-c1ccc(Cl)cc1", "EC50": "100 to 1000 nM"}
{"SMILES_CODE": "COc1ncc(Cn2cc(CO)nc2C)nc1-c1cccc(Cl)c1", "EC50": "100 to 1000 nM"}

###

- TESTED_TARGET: PDE4D3 (Homo sapiens)
- Construct: GST
- Type: biochemical
- ASSAY_CONTEXT: GST-tagged PDE4D3, 200 nM FAM-cAMP, 11-point dose-response; read-out: PD4d3 pEC50 (converted)

{"MOLECULE": "CCOc1ncc(Cn2cnc(C(N)=O)c2)nc1-c1cccc(Cl)c1 [Example 312]", "TESTED_TARGET": "PDE4D3 (Homo sapiens)", "EC50": "< 100 nM"}
{"MOLECULE": "CCOc1ncc(Cc2cnc(N)nc2)cc1-c1ccc(F)c(Cl)c1 [Example 279]", "TESTED_TARGET": "PDE4D3 (Homo sapiens)", "EC50": "< 100 nM"}
{"MOLECULE": "Cc1nc(CO)cn1Cc1cnc(OCC(F)F)c(-c2cccc(Cl)c2)c1 [Example 406]", "TESTED_TARGET": "PDE4D3 (Homo sapiens)", "EC50": "< 100 nM"}
{"MOLECULE": "CCOc1ncc(Cn2nc(CO)cc2C)nc1-c1cccc(Cl)c1 [Example 323]", "TESTED_TARGET": "PDE4D3 (Homo sapiens)", "EC50": "1000 to 10000 nM"}
{"MOLECULE": "COc1ncc(Cn2nc(CO)cc2C)cc1-c1ccnc(OC(F)F)c1 [Example 316]", "TESTED_TARGET": "PDE4D3 (Homo sapiens)", "EC50": "100 to 1000 nM"}
{"MOLECULE": "COc1ncc(Cc2cnc(OCCO)nc2)cc1-c1cccc(Cl)c1 [Example 303]", "TESTED_TARGET": "PDE4D3 (Homo sapiens)", "EC50": "< 100 nM"}
{"MOLECULE": "CCOc1ncc(Cn2cnc(CO)n2)cc1-c1cccc(OC)c1 [Example 327]", "TESTED_TARGET": "PDE4D3 (Homo sapiens)", "EC50": "< 100 nM"}
{"MOLECULE": "COc1ncc(Cn2nnnc2CO)cc1-c1ccc(F)c(F)c1 [Example 384]", "TESTED_TARGET": "PDE4D3 (Homo sapiens)", "EC50": "1000 to 10000 nM"}
{"MOLECULE": "COc1ncc(Cc2cnc(NCCO)nc2)cc1-c1cccc(Cl)c1 [Example 391]", "TESTED_TARGET": "PDE4D3 (Homo sapiens)", "EC50": "< 100 nM"}
{"MOLECULE": "CCOc1ncc(Cn2cnc(CO)n2)cc1-c1ccnc(C(F)(F)F)c1 [Example 339]", "TESTED_TARGET": "PDE4D3 (Homo sapiens)", "EC50": "1000 to 10000 nM"}
{"MOLECULE": "COc1ncc(Cc2cnc(OCC(C)(C)O)nc2)cc1-c1cccc(Cl)c1 [Example 318]", "TESTED_TARGET": "PDE4D3 (Homo sapiens)", "EC50": "1000 to 10000 nM"}
{"MOLECULE": "COc1ncc(Cc2cnc(N3CCC(O)C3)nc2)cc1-c1cccc(Cl)c1 (stereo not shown) [Example 389]", "TESTED_TARGET": "PDE4D3 (Homo sapiens)", "EC50": "100 to 1000 nM"}
{"MOLECULE": "COc1ncc(Cn2nnnc2CCO)cc1-c1cccc(Cl)c1 [Example 295]", "TESTED_TARGET": "PDE4D3 (Homo sapiens)", "EC50": "1000 to 10000 nM"}
{"MOLECULE": "COc1ncc(Cc2cnc(N)nc2)cc1-c1ccnc(C#N)c1 [Example 347]", "TESTED_TARGET": "PDE4D3 (Homo sapiens)", "EC50": "100 to 1000 nM"}
{"MOLECULE": "COc1ncc(Cc2cnnc(C)c2)cc1-c1cccc(Cl)c1 [Example 305]", "TESTED_TARGET": "PDE4D3 (Homo sapiens)", "EC50": "100 to 1000 nM"}
{"MOLECULE": "CCOc1ncc(Cn2cnc(CO)n2)cc1-c1ccc(F)c(C)c1 [Example 331]", "TESTED_TARGET": "PDE4D3 (Homo sapiens)", "EC50": "100 to 1000 nM"}
{"MOLECULE": "COc1ncc(Cc2cnc(N)nc2)cc1-c1ccc(F)c(Cl)c1 [Example 359]", "TESTED_TARGET": "PDE4D3 (Homo sapiens)", "EC50": "< 100 nM"}
{"MOLECULE": "CCOc1cnc(Cc2cnc(OC)c(-c3cccc(Cl)c3)c2)cn1 [Example 289]", "TESTED_TARGET": "PDE4D3 (Homo sapiens)", "EC50": "100 to 1000 nM"}
{"MOLECULE": "COc1ncc(Cc2ccc(CC(N)=O)cc2)cc1-c1ccc(Cl)c(F)c1 [Example 365]", "TESTED_TARGET": "PDE4D3 (Homo sapiens)", "EC50": "< 100 nM"}

###

- TESTED_TARGET: PDE4D3 (Homo sapiens, UniProt Q08499)
- Construct: GST
- Sequence (Q08499 1-673 isoform Q08499-2): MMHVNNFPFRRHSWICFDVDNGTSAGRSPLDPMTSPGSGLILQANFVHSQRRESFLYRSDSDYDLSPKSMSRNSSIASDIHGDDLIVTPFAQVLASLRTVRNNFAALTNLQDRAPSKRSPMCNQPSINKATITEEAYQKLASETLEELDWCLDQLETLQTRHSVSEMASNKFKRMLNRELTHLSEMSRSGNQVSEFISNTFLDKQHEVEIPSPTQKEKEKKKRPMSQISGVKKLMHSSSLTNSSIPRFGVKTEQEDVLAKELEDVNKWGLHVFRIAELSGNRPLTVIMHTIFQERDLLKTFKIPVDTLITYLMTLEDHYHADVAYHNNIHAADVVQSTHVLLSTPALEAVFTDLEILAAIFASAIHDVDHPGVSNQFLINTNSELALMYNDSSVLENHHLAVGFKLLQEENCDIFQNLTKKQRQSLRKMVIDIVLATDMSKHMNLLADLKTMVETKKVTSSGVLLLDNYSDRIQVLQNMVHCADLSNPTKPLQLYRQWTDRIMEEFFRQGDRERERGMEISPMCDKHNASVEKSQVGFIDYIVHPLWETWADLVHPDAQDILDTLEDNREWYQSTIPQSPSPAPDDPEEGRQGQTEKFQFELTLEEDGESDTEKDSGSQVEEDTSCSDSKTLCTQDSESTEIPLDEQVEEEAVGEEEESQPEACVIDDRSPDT
- Assay type: biochemical
- ASSAY_CONTEXT: GST-tagged PDE4D3, 200 nM FAM-cAMP, 11-point dose-response; read-out: PD4d3 pEC50 (converted)
RECORDED_ENDPOINT: EC50

{"MOLECULE": "COc1ncc(Cn2nnnc2CO)cc1-c1ccc(Cl)c(F)c1 [Example 386]", "TESTED_TARGET": "PDE4D3 (Homo sapiens, UniProt Q08499)", "TEST_VALUE": "1000 to 10000 nM"}
{"MOLECULE": "CCOc1ncc(Cn2cnc(C(N)=O)c2)cc1-c1cccc(Cl)c1 [Example 310]", "TESTED_TARGET": "PDE4D3 (Homo sapiens, UniProt Q08499)", "TEST_VALUE": "100 to 1000 nM"}
{"MOLECULE": "CCOc1ncc(Cn2nnnc2C)cc1-c1ccc(Cl)c(F)c1 [Example 397]", "TESTED_TARGET": "PDE4D3 (Homo sapiens, UniProt Q08499)", "TEST_VALUE": "100 to 1000 nM"}
{"MOLECULE": "CCOc1ncc(Cn2ccc(C(N)=O)n2)nc1-c1cccc(Cl)c1 [Example 313]", "TESTED_TARGET": "PDE4D3 (Homo sapiens, UniProt Q08499)", "TEST_VALUE": "100 to 1000 nM"}
{"MOLECULE": "CCOc1ncc(Cc2cnc(NCCO)nc2)nc1-c1ccc(F)c(F)c1 [Example 294]", "TESTED_TARGET": "PDE4D3 (Homo sapiens, UniProt Q08499)", "TEST_VALUE": "< 100 nM"}
{"MOLECULE": "CCOC(=O)Cc1ccc(Cc2cnc(OC)c(-c3cccc(Cl)c3)c2)cc1 [Intermediate 50]", "TESTED_TARGET": "PDE4D3 (Homo sapiens, UniProt Q08499)", "TEST_VALUE": "100 to 1000 nM"}
{"MOLECULE": "COc1cc(-c2cc(Cc3cnc(N)nc3)cnc2OC)ccc1F [Example 354]", "TESTED_TARGET": "PDE4D3 (Homo sapiens, UniProt Q08499)", "TEST_VALUE": "100 to 1000 nM"}
{"MOLECULE": "COc1ncc(Cn2ccc(C(N)=O)n2)cc1-c1ccnc(OC(F)F)c1 [Example 309]", "TESTED_TARGET": "PDE4D3 (Homo sapiens, UniProt Q08499)", "TEST_VALUE": "< 100 nM"}
{"MOLECULE": "COc1ncc(Cc2cnc(C(N)=O)nc2)cc1-c1ccc(F)c(F)c1 [Example 373]", "TESTED_TARGET": "PDE4D3 (Homo sapiens, UniProt Q08499)", "TEST_VALUE": "100 to 1000 nM"}
